# System: SF-268 CNS
# assay.method.text: NCI-60 one-dose screen, 48 h
# condition.set: 10 µM unless noted
The panel holds about 83,000 compounds, 20% with a hit somewhere; the sample as a whole holds those more often. Calls of active or inactive are those of the source. How the source made its calls: active means growth percent below 10; inactive means the rest.
Labels: active, inactive

{"compound": "Cc1c(CC(=O)OCCO)cc(-c2ccc(Cl)cc2)n1-c1ccccc1", "target.or.system": "SF-268 CNS", "answer.label": "inactive"}
{"compound": "C#CCOc1cccc(Nc2ncc3ncn(C4CCN(C(=O)CCl)C4)c3n2)c1 (centres undefined)", "target.or.system": "SF-268 CNS", "answer.label": "inactive"}
{"compound": "CONC1=Nc2cc(NC(N)=NCc3ccccc3)c(N(C)C3CCCCC3)cc2OC1", "target.or.system": "SF-268 CNS", "answer.label": "inactive"}
{"compound": "COc1ccc(-c2cc(-c3cc(OC)c(OC)c(OC)c3)c(C#N)c(=O)n2CCCCC(=O)O)cc1", "target.or.system": "SF-268 CNS", "answer.label": "inactive"}
{"compound": "CCOC(=O)c1ccc(Nc2ncnc3c2cnn3-c2cccc(F)c2)cc1", "target.or.system": "SF-268 CNS", "answer.label": "inactive"}
{"compound": "Cc1ccc(C(=O)c2ccc(CC(=O)N=Nc3c(O)[nH]c4ccc(OC(F)(F)F)cc34)n2C)cc1", "target.or.system": "SF-268 CNS", "answer.label": "inactive"}
{"compound": "CN(Cc1ccccc1)c1nc(Cl)c(C2CC(c3ccc(F)cc3)=NN2C=O)s1 (centres undefined)", "target.or.system": "SF-268 CNS", "answer.label": "inactive"}
{"compound": "Clc1ccc2c(c1)N(c1ncnc3ccc(-c4cnc5[nH]ccc5c4)cc13)CC2", "target.or.system": "SF-268 CNS", "answer.label": "inactive"}
{"compound": "CCCCC#Cc1c(/C=C(\\CCCC)SCC)n(C)c(=O)[nH]c1=O", "target.or.system": "SF-268 CNS", "answer.label": "inactive"}
{"compound": "COc1ccc(-c2ccc(-c3ccc(C(=N)N)cn3)s2)cc1Cl", "target.or.system": "SF-268 CNS", "answer.label": "active"}
{"compound": "COc1ccc2c(c1)CC[C@@H]1[C@@H]2CC[C@]2(C)C3C(=CCC4C(=O)N(c5ccccc5)C(=O)C43)C[C@@H]12 (some centres undefined)", "target.or.system": "SF-268 CNS", "answer.label": "inactive"}
{"compound": "O=C(c1cccc(Br)c1)N1CCN(c2ccnc3cc(Cl)ccc23)CC1", "target.or.system": "SF-268 CNS", "answer.label": "inactive"}
{"compound": "CN1CCN(c2ccc(/C=C/C(=O)c3ccc(O)cc3)cc2)CC1", "target.or.system": "SF-268 CNS", "answer.label": "inactive"}
{"compound": "CCn1cc(C(=O)NN=C2CCCC2)c(=O)c2ccc(C)nc21", "target.or.system": "SF-268 CNS", "answer.label": "inactive"}
{"compound": "Cc1ccc(NC(=O)c2sc3nc(C)c(C(=O)c4ccccc4)cc3c2N)cc1", "target.or.system": "SF-268 CNS", "answer.label": "inactive"}
{"compound": "C=C1CCC2C3(C)COC(c4ccc(NC(C)=O)cc4)OC3CCC2(C)C1C/C=C1/C(=O)OCC1O (centres undefined)", "target.or.system": "SF-268 CNS", "answer.label": "inactive"}
{"compound": "COc1ccccc1/C=C1\\COc2ccc(O)c(O)c2C1=O", "target.or.system": "SF-268 CNS", "answer.label": "inactive"}
{"compound": "Cc1ccc(-c2nc(SCC(=O)c3ccc(C#N)cc3)[nH]c(=O)c2C#N)cc1", "target.or.system": "SF-268 CNS", "answer.label": "inactive"}
{"compound": "N#CC(Cc1cccc2ccccc12)c1cc2ccccc2[nH]1 (centres undefined)", "target.or.system": "SF-268 CNS", "answer.label": "inactive"}
{"compound": "CCCCCCNC(=O)Oc1ccc(/C(=C(/CC)Cc2ccccc2)c2ccc(OCCCN(C)C)cc2)cc1", "target.or.system": "SF-268 CNS", "answer.label": "inactive"}
{"compound": "COC(=O)c1nc(-c2ccc(C)cc2)oc1Sc1ccc(C)cc1", "target.or.system": "SF-268 CNS", "answer.label": "inactive"}
{"compound": "O=C(CCCOc1ccc(Br)cc1)Nc1ncc(Cc2ccc(F)cc2)s1", "target.or.system": "SF-268 CNS", "answer.label": "inactive"}
{"compound": "COc1ccc(-c2csc(NC(=O)CN3CCN(CCO)CC3)n2)cc1NS(=O)(=O)c1cccc2c(N(C)C)cccc12", "target.or.system": "SF-268 CNS", "answer.label": "inactive"}
{"compound": "Nc1nc2ccccc2c2c(=O)c3ccc(Cl)cc3sc12", "target.or.system": "SF-268 CNS", "answer.label": "inactive"}
{"compound": "CCCCCCCCCCCCCCCCCCn1cc(COc2ccc(C=O)cc2)nn1", "target.or.system": "SF-268 CNS", "answer.label": "inactive"}
{"compound": "CCN(CC)CC#CCOC(=O)[C@]1(C)CCC[C@]2(C)c3ccc(C(C)C)cc3CC[C@@H]12", "target.or.system": "SF-268 CNS", "answer.label": "inactive"}
{"compound": "COC(=O)c1[nH]nc(OC)c1C1(C(C#N)c2nc3ccccc3s2)CCCc2ccccc21 (centres undefined)", "target.or.system": "SF-268 CNS", "answer.label": "inactive"}
{"compound": "CCN(c1cc(-c2ccc(CN3CCC(/C=C/S(=O)(=O)c4ccccc4)CC3)cc2)cc(C(=O)NCc2c(C)cc(C)[nH]c2=O)c1C)C1CCOCC1", "target.or.system": "SF-268 CNS", "answer.label": "inactive"}
{"compound": "Nc1c(C(=O)Nc2ccncc2)sc2nc3c(cc12)CCCCCCCC3", "target.or.system": "SF-268 CNS", "answer.label": "active"}
{"compound": "CN(C)CCN1C(=O)c2c(c3c4ccccc4n4c3c3c2c2ccccc2n3C2CC(O)C(O)C4(C)O2)C1=O (centres undefined)", "target.or.system": "SF-268 CNS", "answer.label": "inactive"}
{"compound": "Cn1cc(-c2nonc2-c2cn(C)c3ccc(Br)cc23)c2ccccc21", "target.or.system": "SF-268 CNS", "answer.label": "inactive"}
{"compound": "Cc1c(C(=O)OCCCCOC(=O)c2c(C)n(C)c3scc[n+]23)[n+]2ccsc2n1C", "target.or.system": "SF-268 CNS", "answer.label": "inactive"}
{"compound": "CC1=C2[C@@H](CC1)[C@]1(C)O[C@@](C(C)C)(C[C@H]1OC(=O)CO)[C@H]2OC(=O)C1CC1c1ccccc1 (some centres undefined)", "target.or.system": "SF-268 CNS", "answer.label": "inactive"}
{"compound": "CCCCSc1ccc2nc(-c3ccc(OCCCN=C(N)N)cc3)cn2c1", "target.or.system": "SF-268 CNS", "answer.label": "inactive"}
